Biological target: T1, 4H2729-AA
T1 chain: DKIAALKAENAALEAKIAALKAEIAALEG
Test: two-hybrid library CCmax;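 also: natural log of median RNA to DNA barcode read ratio; higher means stronger binding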
Conditions: mean of both orientations
experimental_readout: interaction score
Just the number, please.

Look at this binder and give its reported interaction score. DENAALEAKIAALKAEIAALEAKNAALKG [4H1352-AA]
0.0997

Also, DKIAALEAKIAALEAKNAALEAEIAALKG [4H2354-AA] please.
-1.03

Repeat with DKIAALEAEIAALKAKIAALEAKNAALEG [4H2151-AA]
-0.63

And then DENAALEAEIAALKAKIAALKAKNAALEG [4H1135-AA] , what is it?
-0.655
